molecular target: Cathepsin B from bovine spleen (Bos taurus); test: Assay for Cathepsin B activity / inhibition (Z-Lys-pNP substrate, absorbance 330 nm); format: biochemical; conditions: Table 8, MRJP5 derived synthetic peptides; MGO-modified
measured.attribute: Cathepsin B remaining activity (% of control)

substance="Ac-MHR-OH (Ac-Met-His-Arg-OH) [MRJP5 derived synthetic peptide]" experimental_result=90.13
substance="H-TNR-OH (H-Thr-Asn-Arg-OH) [MRJP5 derived synthetic peptide]" experimental_result=91.86
substance="Ac-TDK-OH (Ac-Thr-Asp-Lys-OH) [MRJP5 derived synthetic peptide]" experimental_result=92.75
substance="H-TDK-OH (H-Thr-Asp-Lys-OH) [MRJP5 derived synthetic peptide]" experimental_result=87.53
substance="Ac-VNR-OH (Ac-Val-Asn-Arg-OH) [MRJP5 derived synthetic peptide]" experimental_result=68.49
substance="H-MHR-OH (H-Met-His-Arg-OH) [MRJP5 derived synthetic peptide]" experimental_result=80.66
substance="Ac-MDK-OH (Ac-Met-Asp-Lys-OH) [MRJP5 derived synthetic peptide]" experimental_result=99.38
substance="Ac-MDR-OH (Ac-Met-Asp-Arg-OH) [MRJP5 derived synthetic peptide]" experimental_result=88.56
substance="H-LQK-OH (H-Leu-Gln-Lys-OH) [MRJP5 derived synthetic peptide]" experimental_result=95.26

// data source = patent US9580464B2
